target: T1, SARS-CoV-2 receptor binding domain (RBD), wild type, His-tagged (BEI NR52309) (SARS-CoV-2, UniProt P0DTC2 319-541); assay: RBD KD column; method and antibody format not stated
T1 construct: also called WT RBD
Assign Kd to each entry below.
Please state the figure in nM; there is no need to write the unit.

Tell me the measured Kd of mAb 46 (antibody, V domains shown, also called IgG 46; antibody 46) VH: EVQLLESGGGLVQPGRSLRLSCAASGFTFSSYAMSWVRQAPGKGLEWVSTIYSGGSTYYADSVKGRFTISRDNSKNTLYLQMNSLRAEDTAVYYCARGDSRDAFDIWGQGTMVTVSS VL: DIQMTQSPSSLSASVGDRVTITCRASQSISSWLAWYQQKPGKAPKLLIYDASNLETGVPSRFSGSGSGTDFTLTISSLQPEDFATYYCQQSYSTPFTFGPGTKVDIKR , please. 83

Tell me the measured Kd of mAb 128 (antibody, V domains shown) VH: QVQLVQSGAEVKKPGASVKVSCKASGYTFTHYYMHWVRQAPGQGLEWMGIINPSSSSASYSQKFQGRVTMTRDTSTSTVYMELSSLRSEDTAVYYCARDGRYGSGSYPFDYWGQGTLVTVSS VL: DIQMTQSPSSLSASVGDRVTITCRASQNISRYLNWYQQKPGKAPKLLIYDASNLETGVPSRFSGSGSGTDFTLTISSLQPEDFATYYCQQANGFPPTFGQGTKLEIKR , please. 57

Tell me the measured Kd of mAb 254 (antibody, V domains shown, also called IgG 254) VH: EVQLLESGGGLVQPGGSLRLSCAASGFTFSSSAMHWVRQAPGKGLEWVSAIGTGGDTYYADSVKGRFTISRDNSKNTLYLQMNSLRAEDTAVYYCAREGDGYNFYFDYWGQGTLVTVSS VL: DIQMTQSPSSLSASVGDRVTITCRASQGISSYLAWYQQKPGKAPKLLIYDASSLQIGVPSRFSGSGSGTDFTLTISSLQPEDFATYYCLQSYSTPPWTFGQGTKVEIKR , please. 127

Tell me the measured Kd of mAb 178 (antibody, V domains shown, also called IgG 178) VH: QVQLVQSGAEVKKPGASVKVSCKASGYTFTDYHMHWVRQAPGQGLEWMGWINPNSGGTNYAQKFQGRVTMTRDTSTSTVYMELSSLRSEDTAVYYCARDISSWYEITKFDPWGQGTLVTVSS VL: EIVMTQSPATLSVSPGERATLSCKASQSVSGTYLAWYQQKPGQAPRLLIYGASTRATGIPARFSGSGSGTEFTLTISSLQSEDFAVYYCLQTHSYPPTFGQGTKVEIKR , please. 72

Tell me the measured Kd of mAb 82 (antibody, V domains shown, also called IgG 82) VH: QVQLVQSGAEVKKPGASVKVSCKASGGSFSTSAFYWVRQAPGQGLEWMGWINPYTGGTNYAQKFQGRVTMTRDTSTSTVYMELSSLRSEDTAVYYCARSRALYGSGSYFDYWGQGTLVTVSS VL: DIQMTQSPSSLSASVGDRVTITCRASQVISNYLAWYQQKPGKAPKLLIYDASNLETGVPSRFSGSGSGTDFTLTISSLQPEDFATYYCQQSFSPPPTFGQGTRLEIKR , please. 206

The reported measurements were obtained from patent US20250011397A1.
